Just for reference, patent US9206164B2 is where these values come from.

assay-target: human CRTH2 receptor (Homo sapiens (Human), UniProt Q9Y5Y4)
Sequence (Q9Y5Y4 whole entry): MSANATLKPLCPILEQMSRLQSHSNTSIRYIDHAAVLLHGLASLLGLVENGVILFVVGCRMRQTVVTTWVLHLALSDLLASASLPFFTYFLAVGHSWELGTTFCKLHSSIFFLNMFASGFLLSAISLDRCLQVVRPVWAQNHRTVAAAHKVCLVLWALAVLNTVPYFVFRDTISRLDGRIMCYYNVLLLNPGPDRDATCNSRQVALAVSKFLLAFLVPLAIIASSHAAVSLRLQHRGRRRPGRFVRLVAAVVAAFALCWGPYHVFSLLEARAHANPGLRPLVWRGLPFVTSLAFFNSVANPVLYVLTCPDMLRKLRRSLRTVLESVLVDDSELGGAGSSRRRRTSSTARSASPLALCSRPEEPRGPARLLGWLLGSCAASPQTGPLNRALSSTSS
attribute-measured: pKi
Give bare numbers, as −log10 of the molar value.

Below are worked cases with known answers.
Cc1nn(Cc2ccc(-c3cc4cccnc4[nH]3)cc2F)c(C)c1CC(=O)O [Compound 12] = 6.81
CCc1nn(Cc2ccc(-c3nc4cc(F)c(Cl)cc4[nH]3)cc2)c(CC)c1CC(=O)O [Compound 27] = 9.40
CCc1nn(Cc2ccc(-c3nc4cc(C#N)ccc4[nH]3)cc2F)c(CC)c1CC(=O)O [Compound 81] = 8.59
CCc1nn(Cc2ccc(-c3nc4c(F)c(F)ccc4[nH]3)cc2F)c(CC)c1CC(=O)O [Compound 84] = 9.10
Cc1nn(Cc2ccc(-c3nc4ccncc4[nH]3)cc2)c(C)c1CC(=O)O [Compound 60] = 6.52

Please give pKi, item by item, for the list that follows.
1. CCc1nn(Cc2ccc(-c3nc4nc(OC)ccc4[nH]3)cc2)c(CC)c1CC(=O)O [Compound 64]
2. CCc1nn(Cc2ccc(-c3nc4c(F)cc(F)cc4[nH]3)cc2)c(CC)c1CC(=O)O [Compound 50]
3. CCc1nn(Cc2ccc(-c3nc4cc(Cl)cnc4[nH]3)cc2)c(CC)c1CC(=O)O [Compound 42]
4. Cc1nn(Cc2ccc(-c3nc4c(Cl)cc(Cl)cc4[nH]3)cc2)c(C)c1CC(=O)O [Compound 66]
5. Cc1cc2nc(-c3ccc(Cn4nc(C)c(CC(=O)O)c4C)cc3)[nH]c2cc1Cl [Compound 54]
6. CCc1nn(Cc2ccc(-c3nc4ccc(C(F)(F)F)cc4[nH]3)cc2)c(CC)c1CC(=O)O [Compound 20]

[8.51, 8.96, 8.77, 9.00, 8.96, 9.70]

###

assay-target: human CRTH2 receptor (Homo sapiens (Human), UniProt Q9Y5Y4)
Exercise: for every item that follows, state its recorded Ki.
Answers are plain numbers, in nM.

Cc1ccc2[nH]c(-c3ccc(Cn4nc(C)c(CC(=O)O)c4C)c(F)c3)nc2c1 [Compound 91] = 3.7
CCc1nn(Cc2ccc(-c3nc4cc(Cl)ccc4[nH]3)cc2F)c(CC)c1CC(=O)O [Compound 80] = 0.5
Cc1nn(Cc2ccc(-c3nc4c(F)cc(F)cc4[nH]3)cc2)c(C)c1CC(=O)O [Compound 36] = 5.6
CCc1nn(Cc2ccc(-c3nc4cc(Cl)ccc4n3C)cc2)c(CC)c1CC(=O)O [Compound 69] = 61.2
Cc1nn(Cc2ccc(-c3nc4cc(F)c(Cl)cc4[nH]3)cc2F)c(C)c1CC(=O)O [Compound 102] = 2.1

Each of the following entries comes with a recorded value; kindly state Ki for each.
1. Cc1nn(Cc2cccc(-c3cc4ccc(C(F)(F)F)cc4[nH]3)c2)c(C)c1CC(=O)O [Compound 9]
2. Cc1nn(Cc2ccc(-c3nc4cc(Br)cnc4[nH]3)cc2)c(C)c1CC(=O)O [Compound 38]
3. CCc1nn(Cc2ccc(-c3nc4c(F)cccc4[nH]3)cc2)c(CC)c1CC(=O)O [Compound 67]
4. Cc1nn(Cc2cccc(-c3nc4cc(C(F)(F)F)ccc4[nH]3)c2)c(C)c1CC(=O)O [Compound 110]

1: 97.8; 2: 7.4; 3: 1.7; 4: 287

Provide reported Ki for each item, in the same order as listed.
1. Cc1nn(Cc2ccc(-c3nc4c(C)cccc4[nH]3)cc2F)c(C)c1CC(=O)O [Compound 93]
2. CCc1nn(Cc2ccc(-c3nc4cncc(C)c4[nH]3)cc2F)c(CC)c1CC(=O)O [Compound 103]
3. Cc1nn(Cc2ccc(-c3nc4ccc(C(F)(F)F)cc4[nH]3)cc2)c(C)c1CC(=O)O [Compound 21]

[12.8, 87.6, 1.4]

Give one value of Ki per listed compound.
1. CCc1nn(Cc2ccc(-c3nc4c(C)cccc4[nH]3)cc2F)c(CC)c1CC(=O)O [Compound 83]
2. Cc1nn(Cc2ccc(-c3nc4cncc(C)c4[nH]3)cc2F)c(C)c1CC(=O)O [Compound 85]
3. Cc1nn(Cc2ccc(-c3nc4c(F)cc(F)cc4[nH]3)cc2F)c(C)c1CC(=O)O [Compound 77]
4. CCc1nn(Cc2ccc(-c3nc4c(Cl)cc(Cl)cc4[nH]3)cc2F)c(CC)c1CC(=O)O [Compound 104]
5. CCc1nn(Cc2ccc(-c3nc4cc5ccccc5cc4[nH]3)cc2)c(CC)c1CC(=O)O [Compound 19]
6. CCc1nn(Cc2ccc(-c3nc4c(F)c(F)ccc4[nH]3)cc2)c(CC)c1CC(=O)O [Compound 43]
7. Cc1nn(Cc2ccc(-c3nc4cc(C(F)(F)F)ccc4[nH]3)cc2F)c(C)c1CC(=O)O [Compound 111]
8. CCc1nn(Cc2ccc(-c3nc4ccccc4[nH]3)cc2)c(CC)c1CC(=O)O [Compound 15]

1. 1.3
2. 683
3. 5.5
4. 0.7
5. 0.1
6. 1.1
7. 2.5
8. 2.3
